Tested on: RPMI-8226 leukemia
protocol.notes: NCI-60 one-dose screen, 48 h (100 = growth as untreated, 0 = no growth, -100 = all killed)
experimental.context: 10 µM unless noted
Compounds without any hit were thinned out: in the full panel of roughly 83,000, 20% have a hit. Active and inactive are the calls of the source. The calls were made as follows: active = growth percent below 10; inactive = the rest.
Please respond with reported growth for every item in the list.

The molecule listed as `Oc1c(CCl)cc(Cl)cc1Cc1cc(Cl)cc(Cc2cc(Cl)cc(CCl)c2O)c1O` shows growth equal to 4.65% (active)

The molecule listed as `S=C(Nc1ccc(Cl)cc1)c1ccccn1` shows growth equal to 96.8% (inactive)

The molecule listed as O=CN1N=C(c2ccc(Cl)cc2)CC1c1cccc(Nc2ccnc3cc(C(F)(F)F)ccc23)c1 (centres undefined) shows growth equal to 26.4% (inactive)

The molecule listed as `COC(=O)/C=C1\SC(=Nc2cccc(OC)c2)N(CCc2c[nH]c3ccccc23)C1=O` shows growth equal to 19.6% (inactive)

The molecule listed as N#Cc1nc(-c2ccccc2)oc1S(=O)(=O)NCC(c1ccc(Cl)cc1)N1CCCCC1 (centres undefined) shows growth equal to 3.47% (active)

The molecule listed as `Cc1c(Br)cccc1NC(=O)c1sc2nc3c(cc2c1N)CN(Cc1ccccc1)CC3` shows growth equal to 4.4% (active)

The molecule listed as O=C1Nc2ccccc2C12C=C(c1ccccc1)Nc1c2c(-c2ccccc2)nn1-c1ccccc1 (centres undefined) shows growth equal to 40.8% (inactive)

The molecule listed as `COCCOCCOCc1n(Cc2ccc3ccccc3c2)c2ccccc2[n+]1Cc1ccc2ccccc2c1` shows growth equal to -6.22% (active)

The molecule listed as `CCN1CCN(Cc2ccc(NC(=O)c3cccc(C#Cc4cccc5[nH]nc(N)c45)c3)cc2C(F)(F)F)CC1` shows growth equal to -36.9% (active)

The molecule listed as `CCOC(=O)c1sc(/N=C2\NC(=O)/C(=C/c3ccc(N4CCN(C)CC4)cc3)S2)nc1C` shows growth equal to 87.5% (inactive)

The molecule listed as `COc1ccc(-c2nnc(N3CCN(C(=O)CN4CCN(c5ccc(OC)cc5)CC4)CC3)nc2-c2ccc(OC)cc2)cc1` shows growth equal to -59.8% (active)

The molecule listed as `CC(C)(C)c1nc2c(s1)c1nc(N)ncc1c1ccc(NS(=O)(=O)c3c(F)cccc3F)c(F)c12` shows growth equal to 68.9% (inactive)

The molecule listed as `COc1cc(C(=O)N2CCN(c3ccccc3OC)CC2)c(NC(=O)c2cnccn2)cc1OCc1ccccc1` shows growth equal to 65.9% (inactive)

The molecule listed as `COc1ccc(C(=O)c2cc(F)c(F)c(OC)c2F)cc1OC(=O)CCl` shows growth equal to 37.2% (inactive)

The molecule listed as `C=C(C)[C@@H]1CC[C@]2(C(=O)OCCCC[P+](c3ccccc3)(c3ccccc3)c3ccccc3)CC[C@]3(C)[C@H](CC[C@@H]4[C@@]5(C)CC[C@H](OC(=O)C(Cl)Cl)C(C)(C)[C@@H]5CC[C@]43C)[C@@H]12` shows growth equal to -40% (active)

The molecule listed as `CCOC(=O)c1c(-c2ccc(O)cc2)c(C#N)c2c(C#N)c(N)nn2c1N` shows growth equal to 38.7% (inactive)

The molecule listed as `Cc1ccc(CS/C(=C\c2ccc([N+](=O)[O-])cc2)C(=O)c2ccc(F)cc2)cc1` shows growth equal to -18.3% (active)

The molecule listed as `Nc1cc(N)nc(SCC(=O)O)n1` shows growth equal to 102% (inactive)

The molecule listed as Cc1ccc(SC2c3ccc(C)cc3Oc3nc(N)c(C#N)c(N)c32)cc1 (centres undefined) shows growth equal to 12.8% (inactive)
